Just for reference, the supplement of paper PMC3545927 is where these values come from.

Quick reference: furin cleavage Z-score of the listed items.
measuredTarget: furin, P09958;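 note: purified furin at 1:10 enzyme:substrate in 50 mM HEPES pH 7.5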
Sequence (P09958 whole entry): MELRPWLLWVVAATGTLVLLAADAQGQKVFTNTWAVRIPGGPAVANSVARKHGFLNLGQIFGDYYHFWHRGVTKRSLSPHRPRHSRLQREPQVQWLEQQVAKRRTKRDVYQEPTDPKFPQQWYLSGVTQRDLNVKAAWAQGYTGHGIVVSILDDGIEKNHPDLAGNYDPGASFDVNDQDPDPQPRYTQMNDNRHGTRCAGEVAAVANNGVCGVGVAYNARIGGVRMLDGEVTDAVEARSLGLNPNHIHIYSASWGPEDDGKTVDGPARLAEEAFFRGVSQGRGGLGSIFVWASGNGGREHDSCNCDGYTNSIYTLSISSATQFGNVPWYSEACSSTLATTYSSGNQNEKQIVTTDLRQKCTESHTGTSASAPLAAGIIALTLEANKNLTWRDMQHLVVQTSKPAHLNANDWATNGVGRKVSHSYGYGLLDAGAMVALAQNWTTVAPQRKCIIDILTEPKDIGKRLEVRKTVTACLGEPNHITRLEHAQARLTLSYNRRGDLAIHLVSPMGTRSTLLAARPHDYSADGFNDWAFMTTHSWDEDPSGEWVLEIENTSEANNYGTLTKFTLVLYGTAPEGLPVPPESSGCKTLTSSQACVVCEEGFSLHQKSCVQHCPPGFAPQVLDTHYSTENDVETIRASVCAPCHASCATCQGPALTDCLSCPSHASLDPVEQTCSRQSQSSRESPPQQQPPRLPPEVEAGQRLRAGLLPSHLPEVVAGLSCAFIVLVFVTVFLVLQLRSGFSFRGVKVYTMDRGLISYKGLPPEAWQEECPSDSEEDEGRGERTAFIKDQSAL
assayText: furin cleavage Z-score vs untreated control; higher = more cleavage, active = 3.5 or more, inactive = 1 or less, 8 variable residues between constant flanks
measurementConditions: 15 min
This is one part of the list. The true hit rate is not given.
Response field accepts a number only; no unit should be typed.

Worked examples, 5 sequences total:
1) CAEVVLSTWVAGNASASA [HC124]: 0.00773
2) CAFLVQAWKSAGNASASA [HC1472]: -1.14
3) CAWAGWLLSPAGNASASA [HC207]: 0.659
4) CASTARIRRNAGNASASA [FS-198]: 11.2
5) CARPARGAGPAGNASASA [FS-3015]: -1.12

Ask: Quick one: furin cleavage Z-score for CARLARGSPPAGNASASA [HC1255] ?
Result: 0.514

Ask: Try CARREVPCHRAGNASASA [HC2433] next.
Result: 1.63

Ask: Try CARPARALHPAGNASASA [FS-2734] next.
Result: 3.17

Ask: Try CARLRRSSSPAGNASASA [FS-2353] next.
Result: 8.89

Ask: Try CATTPCSGSDAGNASASA [HC1931] next.
Result: -0.942

Ask: Try CADDVVCCSMAGNASASA [HC2111] next.
Result: 0.00684

Ask: Try CAALGINAVAAGNASASA [HC865] next.
Result: 0.918

Ask: Try CARLARSFDCAGNASASA [FS-2568] next.
Result: 2.61

Ask: Try CAEMEECSQHAGNASASA [HC1014] next.
Result: 0.366

Ask: Try CATTPLARAAAGNASASA [HC1565] next.
Result: 1.08
